Tested on: Cryptococcus neoformans
assay summary: Antifungal activity against Cryptococcus neoformans after 48 hrs by broth microdilution method
Type: functional
quantity: MIC (µM)
Give the quantity in µM, number only.

Query the reported MIC for Cryptococcus neoformans; item: S=C(SSC(=S)N1CCN(c2ccccn2)CC1)N1CCN(c2ccccn2)CC1
104

Then this molecule: S=C(SSC(=S)N(C1CCCCC1)C1CCCCC1)N(C1CCCCC1)C1CCCCC1
24.3

Then this molecule: CN(Cc1ccccc1)C(=S)SSC(=S)N(C)Cc1ccccc1
7.9

Then this molecule: CCCCCCSC(=S)N1CCN(C(=S)SSC(=S)N2CCN(C(=S)SCCCCCC)CC2)CC1
38.8

Then this molecule: S=C(SSC(=S)N1CCCC1)N1CCCC1 [BIS(PYRROLIDINYLTHIOCARBONYL)DISULFIDE]
2.6

Then this molecule: S=C(SSC(=S)N1CCOCC1)N1CCOCC1
38.4

* * *

Consider the following compounds; for each one, report its MIC.
Test system: Trichomonas vaginalis
assay summary: Antitrichomonas activity against trophozoite stage of Trichomonas vaginalis clinical isolate assessed as cell viability under anaerobic condition after 48 hrs by trypan blue exclusion assay
Assay type: functional
Give the quantity in µM, number only.

# get_value(readout='MIC', item= S=C(SSC(=S)N1CCCC1)N1CCCC1 [BIS(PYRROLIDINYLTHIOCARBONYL)DISULFIDE] )
10.6

Then this compound: N#CCCCN1CCN(C(=S)SSC(=S)N2CCN(CCCC#N)CC2)CC1
6.8

Then this compound: S=C(SSC(=S)N1CCCCCC1)N1CCCCCC1
286

Then this compound: C=CCN1CCN(C(=S)SSC(=S)N2CCN(CC=C)CC2)CC1
15.5

Then this compound: Cc1ncc([N+](=O)[O-])n1CCO [METRONIDAZOLE]
11.6

Then this compound: S=C(SSC(=S)N1CCOCC1)N1CCOCC1
9.6

Then this compound: CCCCN1CCN(C(=S)SSC(=S)N2CCN(CCCC)CC2)CC1
14.3

Then this compound: CC1CCN(C(=S)SSC(=S)N2CCC(C)CC2)CC1
35.8

Then this compound: CCCCCCCCN1CCN(C(=S)SSC(=S)N2CCN(CCCCCCCC)CC2)CC1
182

Then this compound: CCOC(=O)N1CCN(C(=S)SSC(=S)N2CCN(C(=O)OCC)CC2)CC1
13.3

Then this compound: S=C(SCCN1CCCC1)N1CCN(C(=S)SSC(=S)N2CCN(C(=S)SCCN3CCCC3)CC2)CC1
46.7

Then this compound: CCCCCCCCSC(=S)N1CCN(C(=S)SSC(=S)N2CCN(C(=S)SCCCCCCCC)CC2)CC1
89.4

Then this compound: CN(Cc1ccccc1)C(=S)SSC(=S)N(C)Cc1ccccc1
7.9

Then this compound: S=C(SSC(=S)N1CCN(c2ncccn2)CC1)N1CCN(c2ncccn2)CC1
104

Then this compound: S=C(SSC(=S)N1CCCCC1)N1CCCCC1 [BIS(PIPERIDINYLTHIOCARBONYL)DISULFIDE]
155

Then this compound: S=C(SCc1ccccc1)N1CCN(C(=S)SSC(=S)N2CCN(C(=S)SCc3ccccc3)CC2)CC1
95.4

Then this compound: S=C(SSC(=S)N1CCN(CCN2CCOCC2)CC1)N1CCN(CCN2CCOCC2)CC1
22.7

Then this compound: CN(C)C(=S)SSC(=S)N(C)C [THIRAM]
12.9

* * *

Test system: Trichomonas vaginalis
assay summary: Antitrichomonas activity against metronidazole-resistant trophozoite stage of Trichomonas vaginalis ATCC 50143 assessed as cell viability under anaerobic condition after 48 hrs by trypan blue exclusion assay
Type: functional
protocol conditions: ATCC 50143, 48 h
quantity: MIC

Query the reported MIC for Trichomonas vaginalis; item: S=C(SCCN1CCCCC1)N1CCN(C(=S)SSC(=S)N2CCN(C(=S)SCCN3CCCCC3)CC2)CC1
> 143 µM

Then this compound: O=[N+]([O-])c1ccc(N2CCN(C(=S)SSC(=S)N3CCN(c4ccc([N+](=O)[O-])cc4C(F)(F)F)CC3)CC2)c(C(F)(F)F)c1
> 142 µM

Then this compound: S=C(SSC(=S)N1CCN(c2ccccn2)CC1)N1CCN(c2ccccn2)CC1
> 209 µM

Then this compound: O=C(c1ccccc1)N1CCN(C(=S)SSC(=S)N2CCN(C(=O)c3ccccc3)CC2)CC1
> 188 µM

Then this compound: CCCCN1CCN(C(=S)SSC(=S)N2CCN(CCCC)CC2)CC1
28.7 µM

Then this compound: CCCCSC(=S)N1CCN(C(=S)SSC(=S)N2CCN(C(=S)SCCCC)CC2)CC1
> 170 µM

Then this compound: Cc1ncc([N+](=O)[O-])n1CCO [METRONIDAZOLE]
292 µM

Then this compound: S=C(SSC(=S)N1CCN(CCN2CCOCC2)CC1)N1CCN(CCN2CCOCC2)CC1
45.5 µM

Then this compound: Cc1ccc(S(=O)(=O)N2CCN(C(=S)SSC(=S)N3CCN(S(=O)(=O)c4ccc(C)cc4)CC3)CC2)cc1
> 153 µM

* * *

Tested on: Cryptococcus neoformans
assay summary: Antifungal activity against Cryptococcus neoformans after 48 hrs by broth microdilution method
Format: functional
Note to self: use 1 only for MIC readings below 9 µM; a reading exactly at 9 µM still gets 0.

Regarding S=C(SSC(=S)N1CCN(CCN2CCOCC2)CC1)N1CCN(CCN2CCOCC2)CC1 , kindly confirm whether its MIC is beneath 9 µM.
0

Then this compound: S=C(SCCN1CCCCC1)N1CCN(C(=S)SSC(=S)N2CCN(C(=S)SCCN3CCCCC3)CC2)CC1
0

Then this compound: CN(C)C(=S)SSC(=S)N(C)C [THIRAM]
1

Then this compound: O=[N+]([O-])c1ccc(N2CCN(C(=S)SSC(=S)N3CCN(c4ccc([N+](=O)[O-])cc4C(F)(F)F)CC3)CC2)c(C(F)(F)F)c1
0

Then this compound: S=C(SSC(=S)N1CCCCCC1)N1CCCCCC1
1

Then this compound: O=C(c1ccccc1)N1CCN(C(=S)SSC(=S)N2CCN(C(=O)c3ccccc3)CC2)CC1
0

Then this compound: CCCCCCCCSC(=S)N1CCN(C(=S)SSC(=S)N2CCN(C(=S)SCCCCCCCC)CC2)CC1
0

Then this compound: N#CCCCN1CCN(C(=S)SSC(=S)N2CCN(CCCC#N)CC2)CC1
0

Then this compound: S=C(SCCN1CCOCC1)N1CCN(C(=S)SSC(=S)N2CCN(C(=S)SCCN3CCOCC3)CC2)CC1
0

Then this compound: C=CCN1CCN(C(=S)SSC(=S)N2CCN(CC=C)CC2)CC1
0

Then this compound: Cc1ccc(S(=O)(=O)N2CCN(C(=S)SSC(=S)N3CCN(S(=O)(=O)c4ccc(C)cc4)CC3)CC2)cc1
0

Then this compound: CCCCCCCCCCSC(=S)N1CCN(C(=S)SSC(=S)N2CCN(C(=S)SCCCCCCCCCC)CC2)CC1
0

Then this compound: CS(=O)(=O)N1CCN(C(=S)SSC(=S)N2CCN(S(C)(=O)=O)CC2)CC1
0

Then this compound: OC(Cn1cncn1)(Cn1cncn1)c1ccc(F)cc1F [FLUCONAZOLE]
1

Then this compound: S=C(SSC(=S)N1CCN(C23CC4CC(CC(C4)C2)C3)CC1)N1CCN(C23CC4CC(CC(C4)C2)C3)CC1
0

Then this compound: CC(C)COC(=O)N1CCN(C(=S)SSC(=S)N2CCN(C(=O)OCC(C)C)CC2)CC1
0

Then this compound: Fc1ccc(N2CCN(C(=S)SSC(=S)N3CCN(c4ccc(F)cc4)CC3)CC2)cc1
0

Then this compound: CCCCSC(=S)N1CCN(C(=S)SSC(=S)N2CCN(C(=S)SCCCC)CC2)CC1
0

* * *

assay summary: Spermicidal activity in human sperms assessed as motility measured within 30 secs by phase contrast microscopy
Format: functional, Sperm
quantity: MEC

# get_value(readout='MEC', item= S=C(SSC(=S)N1CCCC1)N1CCCC1 [BIS(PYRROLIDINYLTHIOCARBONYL)DISULFIDE] )
1%

Then this compound: Cc1ccc(S(=O)(=O)N2CCN(C(=S)SSC(=S)N3CCN(S(=O)(=O)c4ccc(C)cc4)CC3)CC2)cc1
>1%

Then this compound: CC(C)COC(=O)N1CCN(C(=S)SSC(=S)N2CCN(C(=O)OCC(C)C)CC2)CC1
>1%

Then this compound: CCOC(=O)N1CCN(C(=S)SSC(=S)N2CCN(C(=O)OCC)CC2)CC1
1%

Then this compound: C=CCN1CCN(C(=S)SCSC(=S)N2CCN(CC=C)CC2)CC1
1%

Then this compound: CCCCN1CCN(C(=S)SCCSC(=S)N2CCN(CCCC)CC2)CC1
0.5%

Then this compound: S=C(SSC(=S)N1CCN(CCN2CCOCC2)CC1)N1CCN(CCN2CCOCC2)CC1
0.005%

Then this compound: COc1ccccc1N1CCN(C(=S)SSC(=S)N2CCN(c3ccccc3OC)CC2)CC1
1%

Then this compound: S=C(SSC(=S)N1CCN(C23CC4CC(CC(C4)C2)C3)CC1)N1CCN(C23CC4CC(CC(C4)C2)C3)CC1
1%

Then this compound: N#CCCCN1CCN(C(=S)SCSC(=S)N2CCN(CCCC#N)CC2)CC1
0.5%

Then this compound: CCCCCCCCN1CCN(C(=S)SSC(=S)N2CCN(CCCCCCCC)CC2)CC1
0.1%

Then this compound: CN1CCN(C(=S)SCCSC(=S)N2CCN(C)CC2)CC1
0.5%

Then this compound: N#CCCCN1CCN(C(=S)SCCSC(=S)N2CCN(CCCC#N)CC2)CC1
0.5%

Then this compound: CN(C)C(=S)SSC(=S)N(C)C [THIRAM]
0.01%

Then this compound: S=C(SSC(=S)N(C1CCCCC1)C1CCCCC1)N(C1CCCCC1)C1CCCCC1
>1%

Then this compound: Fc1ccc(N2CCN(C(=S)SSC(=S)N3CCN(c4ccc(F)cc4)CC3)CC2)cc1
>1%

Then this compound: CN1CCN(C(=S)SCCCSC(=S)N2CCN(C)CC2)CC1
0.5%

Then this compound: O=[N+]([O-])c1ccc(N2CCN(C(=S)SSC(=S)N3CCN(c4ccc([N+](=O)[O-])cc4C(F)(F)F)CC3)CC2)c(C(F)(F)F)c1
0.1%

Then this compound: CC1CCN(C(=S)SSC(=S)N2CCC(C)CC2)CC1
1%

Then this compound: CN1CCN(C(=S)SCSC(=S)N2CCN(C)CC2)CC1
0.5%
